# Substrate: PET
# PROTOCOL SUMMARY: Proxy for plastic degradation [Released monomer concentration (HPLC/LC-MS) (TPA)]
# EXPERIMENTAL CONDITIONS: pH 9
VALUE KIND: Proxy for plastic degradation (nM)
Number only, in nM; omit the unit.

For record unnamed (protein) NPYARGPNPTAASLEASAGPFTVRSFTVSRPSGYGAGTVYYPTNAGGTVGAIAIVPGYTARQSSIKWLGPRLASHGFVVITIDTNSTLDQPSSRSSQQMAALRQVASLNGTSSSPIYGKVDTARMGVMGWSMGGGGSLISAANNPSLKAAAPQAPWDSSTNFSSVTVPTLIFACENDSIAPVNSSALPIYDSMSRNAKQFLEINGGSHSCANSGNSNQALIGKKGVAWMKRFMDNDTRYSTFACENPNSTRVSDFRTANCS the listed Proxy for plastic degradation is 0

The reported value for unnamed (protein) NPYARGPNPTAASLEASAGPFTVRSFTVSRPSGYGAGTVYYPTNAGGTVGAIAIVPGYTARQSSIKWWGPRLASHGFVVITIDTNSTLDQPSSRSSQQMAALRQVASLNGTSSSPIYGKVDTARMGVMGWSMGGGGSLISAANNPSLKAAAPQAPADSSTNFSSVTVPTLIFACENDSIAPVNSSALPIYDSMSRNAKQFLEINGGSHSCANSGNSNQALIGKKGVAWMKRFMDNDTRYSTFACENPNSTRVSDFRTANCS in terms of Proxy for plastic degradation is 2
